// reported microsomal CLint at 1 µM for each item listed
Experiment: In vitro liver microsomal stability assay, rat
Format: in vitro ADME
Details: Rat liver microsomes; read-out: CLint(mic)
property.name: microsomal CLint at 1 µM (µL/min/mg)

input.smiles: C[C@@]1(O)CC[C@H]2[C@H](CC[C@@H]3[C@@H]2CC[C@]2(C)[C@@H](C(=O)Cn4cnn(-c5ccnc(OCC(F)(F)F)c5)c4=O)CC[C@@H]32)C1
property.name: microsomal CLint at 1 µM
op: <
value.measured: 7.5
//
input.smiles: C[C@@]1(O)CC[C@H]2[C@H](CC[C@@H]3[C@@H]2CC[C@]2(C)[C@@H](C(=O)Cn4cnn(-c5cncc(F)c5)c4=O)CC[C@@H]32)C1
property.name: microsomal CLint at 1 µM
op: =
value.measured: 40
//
input.smiles: C[C@@]1(O)CC[C@H]2[C@H](CC[C@@H]3[C@@H]2CC[C@]2(C)[C@@H](C(=O)Cn4ccn(-c5cccc(F)c5)c4=O)CC[C@@H]32)C1
property.name: microsomal CLint at 1 µM
op: =
value.measured: 153
//
input.smiles: COc1ccc(-n2ncn(CC(=O)[C@H]3CC[C@H]4[C@@H]5CC[C@@H]6C[C@](C)(O)CC[C@@H]6[C@H]5CC[C@]34C)c2=O)cn1
property.name: microsomal CLint at 1 µM
op: =
value.measured: 90
//
input.smiles: C[C@@]1(O)CC[C@H]2[C@H](CC[C@@H]3[C@@H]2CC[C@]2(C)[C@@H](C(=O)Cn4cnn(-c5cc(F)cc(F)c5)c4=O)CC[C@@H]32)C1
property.name: microsomal CLint at 1 µM
op: =
value.measured: 24
//
input.smiles: C[C@@]1(O)CC[C@H]2[C@H](CC[C@@H]3[C@@H]2CC[C@]2(C)[C@@H](C(=O)Cn4ncn(-c5ccc(F)cc5)c4=O)CC[C@@H]32)C1
property.name: microsomal CLint at 1 µM
op: =
value.measured: 133
//
input.smiles: Cc1cc(-n2ncn(CC(=O)[C@H]3CC[C@H]4[C@@H]5CC[C@@H]6C[C@](C)(O)CC[C@@H]6[C@H]5CC[C@]34C)c2=O)ccn1
property.name: microsomal CLint at 1 µM
op: =
value.measured: 69
